experiment: Ratio of MIC for methicillin, quinolone-resistant Staphylococcus aureus to fraction unbound in human plasma; format: ADME
MEASURED QUANTITY: Ratio

INPUT: Given the entry CO[C@H]1CN(c2nc(-c3cncc(NCCN4CCN(C)CC4)n3)c(C(=O)O)s2)CC[C@H]1NC(=O)c1[nH]c(C)c(Cl)c1Cl , report its measured Ratio.
OUTPUT: 21

INPUT: Given the entry CO[C@H]1CN(c2nc(-c3nccs3)c(C(=O)O)s2)CC[C@H]1NC(=O)c1[nH]c(C)c(Cl)c1Cl , report its measured Ratio.
OUTPUT: < 6.3

INPUT: Given the entry CO[C@H]1CN(c2nc(C(=O)NCCN3CCCC3=O)c(C(=O)O)s2)CC[C@H]1NC(=O)c1[nH]c(C)c(Cl)c1Cl , report its measured Ratio.
OUTPUT: 18

INPUT: Given the entry COCCNC(=O)c1nc(N2CC[C@@H](NC(=O)c3[nH]c(C)c(Cl)c3Cl)[C@@H](OC)C2)sc1C(=O)O , report its measured Ratio.
OUTPUT: 3.3

* * *

biological target: DNA gyrase subunit B (Staphylococcus aureus, UniProt P0A0K8); test: Inhibition of ATPase activity of Staphylococcus aureus GyrB
Sequence (P0A0K8 whole entry): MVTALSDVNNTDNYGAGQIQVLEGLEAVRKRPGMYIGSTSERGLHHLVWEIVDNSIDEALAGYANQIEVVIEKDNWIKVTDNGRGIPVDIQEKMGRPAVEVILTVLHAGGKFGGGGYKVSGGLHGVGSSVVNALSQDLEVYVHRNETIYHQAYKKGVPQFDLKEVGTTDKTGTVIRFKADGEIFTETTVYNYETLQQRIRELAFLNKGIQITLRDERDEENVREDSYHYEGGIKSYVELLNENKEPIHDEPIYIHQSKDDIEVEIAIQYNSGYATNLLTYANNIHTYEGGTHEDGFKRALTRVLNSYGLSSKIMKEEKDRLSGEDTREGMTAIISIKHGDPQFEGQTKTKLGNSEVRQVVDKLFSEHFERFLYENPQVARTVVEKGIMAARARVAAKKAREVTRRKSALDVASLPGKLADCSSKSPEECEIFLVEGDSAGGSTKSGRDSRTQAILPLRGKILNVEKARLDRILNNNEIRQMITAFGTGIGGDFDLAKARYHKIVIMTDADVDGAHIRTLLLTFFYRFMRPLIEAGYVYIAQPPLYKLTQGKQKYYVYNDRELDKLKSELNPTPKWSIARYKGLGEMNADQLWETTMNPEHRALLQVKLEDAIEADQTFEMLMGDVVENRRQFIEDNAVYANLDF
pIC50: −log10 of the molar value.
MEASURED QUANTITY: pIC50

INPUT: Given the entry CO[C@H]1CN(c2nc(-c3cn(C)cn3)c(C(=O)O)s2)CC[C@H]1NC(=O)c1[nH]c(C)c(Cl)c1Cl , report its measured pIC50.
OUTPUT: > 8.00

INPUT: Given the entry CO[C@H]1CN(c2nc(-c3nccs3)c(C(=O)O)s2)CC[C@H]1NC(=O)c1[nH]c(C)c(Cl)c1Cl , report its measured pIC50.
OUTPUT: > 8.01

INPUT: Given the entry CS[C@H]1CN(c2ncc(C(=O)O)s2)CC[C@H]1NC(=O)c1[nH]c(C)c(Cl)c1Cl (racemic) , report its measured pIC50.
OUTPUT: > 8.00

INPUT: Given the entry COCC(COC)NC(=O)c1nc(N2CC[C@@H](NC(=O)c3[nH]c(C)c(Cl)c3Cl)[C@@H](OC)C2)sc1C(=O)O , report its measured pIC50.
OUTPUT: > 8.00

INPUT: Given the entry CO[C@@H]1CN(c2ncc(C(=O)O)s2)CC[C@@H]1NC(=O)c1[nH]c(C)c(Cl)c1Cl , report its measured pIC50.
OUTPUT: 6.85

INPUT: Given the entry CO[C@H]1CN(c2nc(C(=O)NC[C@H](C)OC)c(C(=O)O)s2)CC[C@H]1NC(=O)c1[nH]c(C)c(Cl)c1Cl , report its measured pIC50.
OUTPUT: > 8.00

INPUT: Given the entry CO[C@H]1CN(c2nc(C(=O)O)cs2)CC[C@H]1NC(=O)c1[nH]c(C)c(Cl)c1Cl , report its measured pIC50.
OUTPUT: > 8.00

INPUT: Given the entry COC[C@H]1CN(c2ncc(C(=O)O)s2)CC[C@H]1NC(=O)c1[nH]c(C)c(Cl)c1Cl (racemic) , report its measured pIC50.
OUTPUT: 7.27

* * *

system: Staphylococcus aureus; test: Antimicrobial activity against methicillin-sensitive Staphylococcus aureus by broth microdilution/CLSI method; format: functional; conditions: Staphylococcus aureus; read-out: MIC
Binarize MIC at 0.5 µg/mL; below is Y, at or above is N.

INPUT: is_below(MIC, 0.5 µg/mL) for COCn1ccnc1-c1nc(N2CC[C@@H](NC(=O)c3[nH]c(C)c(Cl)c3Cl)[C@@H](OC)C2)sc1C(=O)O ?
OUTPUT: Y

INPUT: is_below(MIC, 0.5 µg/mL) for CO[C@H]1CN(c2nc(-c3nccn3C)c(C(=O)O)s2)CC[C@H]1NC(=O)c1[nH]c(C)c(Cl)c1Cl ?
OUTPUT: Y

INPUT: is_below(MIC, 0.5 µg/mL) for CO[C@H]1CN(c2nc(-c3cncnc3)c(C(=O)O)s2)CC[C@H]1NC(=O)c1[nH]c(C)c(Cl)c1Cl ?
OUTPUT: N

INPUT: is_below(MIC, 0.5 µg/mL) for CO[C@H]1CN(c2nc(CN3CCOCC3)c(C(=O)O)s2)CC[C@H]1NC(=O)c1[nH]c(C)c(Cl)c1Cl (racemic) ?
OUTPUT: N

INPUT: is_below(MIC, 0.5 µg/mL) for CO[C@H]1CN(c2nc(C(=O)O)c(C)s2)CC[C@H]1NC(=O)c1[nH]c(C)c(Cl)c1Cl ?
OUTPUT: Y

INPUT: is_below(MIC, 0.5 µg/mL) for COC[C@H](C)NC(=O)c1nc(N2CC[C@@H](NC(=O)c3[nH]c(C)c(Cl)c3Cl)[C@@H](OC)C2)sc1C(=O)O [AZD-5099] ?
OUTPUT: Y

INPUT: is_below(MIC, 0.5 µg/mL) for CCO[C@H]1CN(c2ncc(C(=O)O)s2)CC[C@H]1NC(=O)c1[nH]c(C)c(Cl)c1Cl (racemic) ?
OUTPUT: N

INPUT: is_below(MIC, 0.5 µg/mL) for CO[C@H]1CN(c2nc(-c3ncccn3)c(C(=O)O)s2)CC[C@H]1NC(=O)c1[nH]c(C)c(Cl)c1Cl ?
OUTPUT: Y

INPUT: is_below(MIC, 0.5 µg/mL) for CO[C@H]1CN(c2nc(C)c(C(=O)O)s2)CC[C@H]1NC(=O)c1[nH]c(C)c(Cl)c1Cl ?
OUTPUT: Y

INPUT: is_below(MIC, 0.5 µg/mL) for COCCNC(=O)c1nc(N2CC[C@@H](NC(=O)c3[nH]c(C)c(Cl)c3Cl)[C@@H](OC)C2)sc1C(=O)O ?
OUTPUT: Y

INPUT: is_below(MIC, 0.5 µg/mL) for Cc1[nH]c(C(=O)N[C@@H]2CCN(c3ncc(C(=O)O)s3)C[C@@H]2C)c(Cl)c1Cl (racemic) ?
OUTPUT: N

INPUT: is_below(MIC, 0.5 µg/mL) for Cc1[nH]c(C(=O)N[C@@H]2CCN(c3ncc(C(=O)O)s3)C[C@@H]2CO)c(Cl)c1Cl (racemic) ?
OUTPUT: N

INPUT: is_below(MIC, 0.5 µg/mL) for CO[C@H]1CN(c2nc(C(=O)NN3CCOCC3)c(C(=O)O)s2)CC[C@H]1NC(=O)c1[nH]c(C)c(Cl)c1Cl ?
OUTPUT: N

INPUT: is_below(MIC, 0.5 µg/mL) for CO[C@@H]1CN(c2ncc(C(=O)O)s2)CC[C@H]1NC(=O)c1[nH]c(C)c(Cl)c1Cl ?
OUTPUT: N

INPUT: is_below(MIC, 0.5 µg/mL) for CO[C@H]1CN(c2nc(C(=O)N3CCOCC3)c(C(=O)O)s2)CC[C@H]1NC(=O)c1[nH]c(C)c(Cl)c1Cl (racemic) ?
OUTPUT: N

INPUT: is_below(MIC, 0.5 µg/mL) for CO[C@@H]1CN(c2ncc(C(=O)O)s2)CC[C@@H]1NC(=O)c1[nH]c(C)c(Cl)c1Cl ?
OUTPUT: N

INPUT: is_below(MIC, 0.5 µg/mL) for COc1cc(OC)nc(-c2nc(N3CC[C@@H](NC(=O)c4[nH]c(C)c(Cl)c4Cl)[C@@H](OC)C3)sc2C(=O)O)n1 ?
OUTPUT: Y

INPUT: is_below(MIC, 0.5 µg/mL) for Cc1[nH]c(C(=O)N[C@@H]2CCN(c3ncc(C(=O)O)s3)CC23OCCCO3)c(Cl)c1Cl ?
OUTPUT: N

INPUT: is_below(MIC, 0.5 µg/mL) for CO[C@H]1CN(c2nc(-c3ccncn3)c(C(=O)O)s2)CC[C@H]1NC(=O)c1[nH]c(C)c(Cl)c1Cl ?
OUTPUT: Y

INPUT: is_below(MIC, 0.5 µg/mL) for CO[C@H]1CN(c2nc(C(C)=O)c(C(=O)O)s2)CC[C@H]1NC(=O)c1[nH]c(C)c(Cl)c1Cl ?
OUTPUT: Y

INPUT: is_below(MIC, 0.5 µg/mL) for CO[C@H]1CN(c2nc(C(=O)O)cs2)CC[C@H]1NC(=O)c1[nH]c(C)c(Cl)c1Cl ?
OUTPUT: Y

INPUT: is_below(MIC, 0.5 µg/mL) for CO[C@H]1CN(c2nc(C(=O)NCCN3CCOCC3)c(C(=O)O)s2)CC[C@H]1NC(=O)c1[nH]c(C)c(Cl)c1Cl ?
OUTPUT: Y

INPUT: is_below(MIC, 0.5 µg/mL) for COCC(COC)(COC)NC(=O)c1nc(N2CC[C@@H](NC(=O)c3[nH]c(C)c(Cl)c3Cl)[C@@H](OC)C2)sc1C(=O)O ?
OUTPUT: Y

INPUT: is_below(MIC, 0.5 µg/mL) for C=C1COC2(CN(c3ncc(C(=O)O)s3)CC[C@H]2NC(=O)c2[nH]c(C)c(Cl)c2Cl)OC1 ?
OUTPUT: N

INPUT: is_below(MIC, 0.5 µg/mL) for CO[C@H]1CN(c2nc(-c3cncc(OCCN(C)C)n3)c(C(=O)O)s2)CC[C@H]1NC(=O)c1[nH]c(C)c(Cl)c1Cl ?
OUTPUT: Y

INPUT: is_below(MIC, 0.5 µg/mL) for COC1(OC)CN(c2ncc(C(=O)O)s2)CC[C@H]1NC(=O)c1[nH]c(C)c(Cl)c1Cl ?
OUTPUT: N

INPUT: is_below(MIC, 0.5 µg/mL) for CO[C@H]1CN(c2nc(C(=O)NC3COC(C)(C)OC3)c(C(=O)O)s2)CC[C@H]1NC(=O)c1[nH]c(C)c(Cl)c1Cl ?
OUTPUT: Y

INPUT: is_below(MIC, 0.5 µg/mL) for Cc1[nH]c(C(=O)N[C@@H]2CCN(c3ncc(C(=O)O)s3)C[C@@H]2F)c(Cl)c1Cl ?
OUTPUT: N

INPUT: is_below(MIC, 0.5 µg/mL) for CO[C@H]1CN(c2nc(-c3csc(N)n3)c(C(=O)O)s2)CC[C@H]1NC(=O)c1[nH]c(C)c(Cl)c1Cl ?
OUTPUT: Y
